# ASSAY_NAME: Effect of temperature and solvent on the equilibrium composition of the pteropodine isomers
# Format: physicochemical
# CONDITION_LABEL: 25° C., methanol
METRIC_NAME: equilibrium composition (% per weight)

INSERT INTO measurements (compound, metric_name, observed_value) VALUES
  ('COC(=O)C1=COC(C)C2CN3CCC4(C(=O)Nc5ccccc54)C3CC12 (stereo not shown) [Uncarine F, uncarine F]', 'equilibrium composition', 1.3),
  ('COC(=O)C1=COC(C)C2CN3CCC4(C(=O)Nc5ccccc54)C3CC12 (stereo not shown) [Pteropodine, pteropodine]', 'equilibrium composition', 22.9),
  ('COC(=O)C1=CO[C@@H](C)[C@@H]2CN3CC[C@@]4(C(=O)Nc5ccccc54)[C@@H]3C[C@H]12', 'equilibrium composition', 75.4),
  ('COC(=O)C1=COC(C)C2CN3CCC4(C(=O)Nc5ccccc54)C3CC12 (stereo not shown) [Speciophylline, speciophylline]', 'equilibrium composition', 0.4);

----------
equilibrium composition listing for selected molecules.
# ASSAY_NAME: Effect of temperature and solvent on the equilibrium composition of the pteropodine isomers
# Format: physicochemical
# CONDITION_LABEL: 37° C., water
METRIC_NAME: equilibrium composition (% per weight)

INSERT INTO results (molecule, metric_name, observed_value) VALUES
  ('COC(=O)C1=COC(C)C2CN3CCC4(C(=O)Nc5ccccc54)C3CC12 (stereo not shown) [Speciophylline, speciophylline]', 'equilibrium composition', 4.5),
  ('COC(=O)C1=COC(C)C2CN3CCC4(C(=O)Nc5ccccc54)C3CC12 (stereo not shown) [Uncarine F, uncarine F]', 'equilibrium composition', 6.1),
  ('COC(=O)C1=COC(C)C2CN3CCC4(C(=O)Nc5ccccc54)C3CC12 (stereo not shown) [Pteropodine, pteropodine]', 'equilibrium composition', 29.8),
  ('COC(=O)C1=CO[C@@H](C)[C@@H]2CN3CC[C@@]4(C(=O)Nc5ccccc54)[C@@H]3C[C@H]12', 'equilibrium composition', 59.6);

----------
# ASSAY_NAME: physchem
# Format: physicochemical
# CONDITION_LABEL: 1-octanol/water, pH 7, log KO/W
METRIC_NAME: logD

INSERT INTO results (compound, metric_name, observed_value) VALUES
  ('COC(=O)C1=COC(C)C2CN3CCC4(C(=O)Nc5ccccc54)C3CC12 (stereo not shown)', 'logD', 2.5);

----------
# ASSAY_NAME: Effect of temperature and solvent on the equilibrium composition of the pteropodine isomers
# Assay type: physicochemical
# CONDITION_LABEL: 50° C., methanol
Listed below: equilibrium composition values for each entry.
METRIC_NAME: equilibrium composition (% per weight)

INSERT INTO measurements (compound, unit_label, observed_value) VALUES
  ('COC(=O)C1=COC(C)C2CN3CCC4(C(=O)Nc5ccccc54)C3CC12 (stereo not shown) [Uncarine F, uncarine F]', '% per weight', 2.0),
  ('COC(=O)C1=COC(C)C2CN3CCC4(C(=O)Nc5ccccc54)C3CC12 (stereo not shown) [Speciophylline, speciophylline]', '% per weight', 1.0),
  ('COC(=O)C1=CO[C@@H](C)[C@@H]2CN3CC[C@@]4(C(=O)Nc5ccccc54)[C@@H]3C[C@H]12', '% per weight', 73.5),
  ('COC(=O)C1=COC(C)C2CN3CCC4(C(=O)Nc5ccccc54)C3CC12 (stereo not shown) [Pteropodine, pteropodine]', '% per weight', 23.5);
